Tgt: full-length recombinant rat vitamin D receptor (Rattus norvegicus, UniProt P13053)
Construct: the full-length recombinant rat vitamin D receptor
Sequence (P13053 whole entry): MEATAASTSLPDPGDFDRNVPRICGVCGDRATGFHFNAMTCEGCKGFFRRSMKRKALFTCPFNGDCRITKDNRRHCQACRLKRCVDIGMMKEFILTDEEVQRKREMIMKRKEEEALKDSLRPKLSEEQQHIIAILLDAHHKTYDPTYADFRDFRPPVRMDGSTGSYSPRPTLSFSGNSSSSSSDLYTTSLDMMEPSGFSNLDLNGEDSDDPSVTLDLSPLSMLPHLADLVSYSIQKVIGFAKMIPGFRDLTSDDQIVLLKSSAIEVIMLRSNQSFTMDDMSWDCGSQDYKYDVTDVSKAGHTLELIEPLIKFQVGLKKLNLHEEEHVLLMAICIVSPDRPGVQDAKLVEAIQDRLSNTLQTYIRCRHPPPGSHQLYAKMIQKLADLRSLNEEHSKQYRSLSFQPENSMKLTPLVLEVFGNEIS
Experimental details: competition with [3H]-1,25(OH)2D3 for binding to vitamin D receptor
Condition context: full-length recombinant rat vitamin D receptor (FIG. 2)
Observed property: Ki (nM)

C[C@H](CCCC(C)(C)O)[C@H]1CC[C@H]2/C(=C/C=C3C[C@@H](O)C[C@H](O)C3)CCC[C@]12C [1,25(OH)2 19-nor-D3, 1α,25-dihydroxy-19-nor-vitamin D3, reference compound]: 0.2
C=C1C(O)CC(=CC=C2CCCC3(C)C2CCC3C(C)C)CC1O (stereo not shown): 0.3
C=C1[C@H](O)CC(=C/C=C2\CCC[C@]3(C)C(CC)CCC23)C[C@H]1O (stereo partly shown): 0.3
C=C1[C@H](O)CC(=C/C=C2\CCC[C@]3(C)[C@@H]([C@@H](C)CC)CC[C@@H]23)C[C@H]1O: 0.6
